The entries below are paired with their reported inhibition (INH).
- System: Aspergillus niger
- Assay protocol: Antifungal activity against Aspergillus niger assessed as radial growth at 5% after 72 hrs by poison food technique of Flack relative to control
- Assay type: functional
Report the figure in % without appending any unit label.

[[record]]
molecule = "CCOC(=O)C1=C(C)NC(=S)NC1c1ccccc1 (stereo not drawn)"
units_symbol = "%"
observed_value = 55.63

[[record]]
molecule = "CCOC(=O)C1=C(C)NC(=O)NC1c1ccccc1 (stereo not drawn)"
units_symbol = "%"
observed_value = 73.29


Exam item: Read off the recorded inhibition (INH) for CCOC(=O)C1=C(C)NC(=S)NC1c1ccc(N(C)C)cc1 (stereo not drawn)
Marked response: 78.39
